System: NCI-H650
assaySummary: relative viability (nuclei count vs DMSO), 5 days (fraction); higher = more cells survive
testParameters: first compound 20 µM
Output T for records whose relative viability is lower than 0.1, F for records at or above 0.1.

State whether 0.1 exceeds relative viability recorded for COCC1(CO)C(=O)C2CCN1CC2 (stereo unspecified) [PRIMA-1MET] + CC(=O)Nc1cccc(-n2c(=O)n(C3CC3)c(=O)c3c(Nc4ccc(I)cc4F)n(C)c(=O)c(C)c32)c1 [Trametinib] (partner 0.02 µM) .
T

Identify whether the compound COCC1(CO)C(=O)C2CCN1CC2 (stereo unspecified) [PRIMA-1MET] + O=C(c1cc(Cc2n[nH]c(=O)c3ccccc23)ccc1F)N1CCN(C(=O)C2CC2)CC1 [Olaparib] (partner 8 µM) records relative viability below 0.1.
F

In plain terms, does COCC1(CO)C(=O)C2CCN1CC2 (stereo unspecified) [PRIMA-1MET] + Nc1ncn([C@H]2C[C@H](O)[C@@H](CO)O2)c(=O)n1 [Decitabine] (partner 2 µM) come in under 0.1 for relative viability?
F

Does the reported relative viability of the following compound sit strictly below 0.1? COCC1(CO)C(=O)C2CCN1CC2 (stereo unspecified) [PRIMA-1MET] + CS(=O)(=O)N1CCN(Cc2cc3nc(-c4cccc5[nH]ncc45)nc(N4CCOCC4)c3s2)CC1 [Pictilisib] (partner 1 µM)
F

Confirm or reject: relative viability of COCC1(CO)C(=O)C2CCN1CC2 (stereo unspecified) [PRIMA-1MET] + CC(C)C[C@H](NC(=O)[C@H](Cc1ccccc1)NC(=O)c1cnccn1)B(O)O [Bortezomib] (partner 0.002 µM) lies strictly below 0.1
F

relative viability strictly < 0.1 for this compound? COCC1(CO)C(=O)C2CCN1CC2 (stereo unspecified) [PRIMA-1MET] + N=C(N)NC(=N)NCCc1ccccc1 [Phenformin] (partner 250 µM)
F

====

Test system: EKVX
assaySummary: relative viability (nuclei count vs DMSO), 5 days (fraction); higher = more cells survive
testParameters: first compound 0.01 µM
For each record, write down the corresponding relative viability.
Keep it simple and answer with nothing but the number.

May I ask what relative viability has been recorded for CCN(CC)CCCCNc1ncc2cc(-c3cc(OC)cc(OC)c3)c(NC(=O)NC(C)(C)C)nc2n1 + Cc1nc(NC(=O)N2CCC[C@H]2C(N)=O)sc1-c1ccnc(C(C)(C)C(F)(F)F)c1 [Alpelisib] (partner 2 µM) ?
0.818

Please give the measured relative viability for this compound: CCN(CC)CCCCNc1ncc2cc(-c3cc(OC)cc(OC)c3)c(NC(=O)NC(C)(C)C)nc2n1 + COc1cccc2cc(-c3nc([C@H]4CC[C@H](C(=O)O)CC4)n4ncnc(N)c34)[nH]c12 [OSI-027] (partner 0.5 µM)
0.734

Dear colleague, I am looking for the recorded relative viability of the following compound: CCN(CC)CCCCNc1ncc2cc(-c3cc(OC)cc(OC)c3)c(NC(=O)NC(C)(C)C)nc2n1 + C[C@]1(O)C[C@@H](c2nc(-c3ccc4ccc(-c5ccccc5)nc4c3)c3c(N)nccn32)C1 [Linsitinib] (partner 1 µM)
1.11

What value of measured relative viability is listed for O=c1cc(N2CCOCC2)oc2c(-c3cccc4c3sc3ccccc34)cccc12 + O=C(CCCCCCC(=O)Nc1ccccc1)NO [Vorinostat] (partner 1 µM) ?
0.723

Form field: reported relative viability of O=c1cc(N2CCOCC2)oc2c(-c3cccc4c3sc3ccccc34)cccc12 + CC(=O)c1c(C)c2cnc(Nc3ccc(N4CCNCC4)cn3)nc2n(C2CCCC2)c1=O [Palbociclib] (partner 0.5 µM)
0.376

So what does the record say about relative viability for O=c1cc(N2CCOCC2)oc2c(-c3cccc4c3sc3ccccc34)cccc12 + O=C(c1cc(Cc2n[nH]c(=O)c3ccccc23)ccc1F)N1CCN(C(=O)C2CC2)CC1 [Olaparib] (partner 8 µM) ?
0.769

Ref: the supplement of paper PMC10307832
